Just for reference, ChEMBL document CHEMBL3352007 is where these values come from.

Molecular target: Deoxyribonuclease-1 (Homo sapiens, UniProt P24855)
Sequence (P24855 whole entry): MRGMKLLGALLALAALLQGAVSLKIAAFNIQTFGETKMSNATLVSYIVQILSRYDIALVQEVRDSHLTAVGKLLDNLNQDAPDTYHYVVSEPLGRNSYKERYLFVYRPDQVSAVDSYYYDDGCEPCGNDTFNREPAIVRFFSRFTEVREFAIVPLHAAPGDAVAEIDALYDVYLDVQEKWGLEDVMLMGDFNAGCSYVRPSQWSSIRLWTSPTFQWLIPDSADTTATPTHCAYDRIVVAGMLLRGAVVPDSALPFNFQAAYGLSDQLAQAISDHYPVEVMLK
Test: Inhibition of DNase 1 (unknown origin)
pIC50: −log10 of the molar value.
assay metric: pIC50

Problem: Quote pIC50 with test system Deoxyribonuclease-1 (Homo sapiens, UniProt P24855) for "O=C(O)c1ccc(Nc2nc(Cl)nc(Cl)n2)cc1-c1c2ccc(=O)cc-2oc2cc(O)ccc12"
Result: < 3.52
